# Target system: matrix metalloproteinase 9 (MMP9) (Homo sapiens)
# Sequence (P14780 94-707, species assumed): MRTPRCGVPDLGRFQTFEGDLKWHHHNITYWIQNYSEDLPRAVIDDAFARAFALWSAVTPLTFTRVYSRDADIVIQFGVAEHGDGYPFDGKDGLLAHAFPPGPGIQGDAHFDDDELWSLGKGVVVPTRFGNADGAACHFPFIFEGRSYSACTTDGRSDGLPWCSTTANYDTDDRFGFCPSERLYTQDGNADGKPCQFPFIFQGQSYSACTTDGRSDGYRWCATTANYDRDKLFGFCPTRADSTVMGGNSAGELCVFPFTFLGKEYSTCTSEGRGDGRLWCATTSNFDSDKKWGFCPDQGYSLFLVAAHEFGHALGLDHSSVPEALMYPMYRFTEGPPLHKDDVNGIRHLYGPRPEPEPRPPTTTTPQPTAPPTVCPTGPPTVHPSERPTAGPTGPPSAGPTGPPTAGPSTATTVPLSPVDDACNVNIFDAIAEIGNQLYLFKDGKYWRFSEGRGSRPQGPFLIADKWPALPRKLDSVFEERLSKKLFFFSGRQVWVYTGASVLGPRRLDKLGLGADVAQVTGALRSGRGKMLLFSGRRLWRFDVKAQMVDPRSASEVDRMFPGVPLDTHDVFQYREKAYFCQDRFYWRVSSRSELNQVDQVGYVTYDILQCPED
# Test name: In vitro matrix metalloproteinase-based conjugate cleavage
# Format: biochemical
# Run conditions: isolated enzyme, MMP9, 37° C., up to 20 h, read-out: T1/2 of cleavage (converted)
Peptide text beside a SMILES is read from it. * marks the point of attachment. X1 = O=C(CCCCCN1C(=O)CC(*)C1=O)NCCCC(O)(P(=O)(O)O)P(=O)(O)O; X2 = O=P(O)(O)SCCNCCCN*
Measured endpoint: half-life at 0.898 mg/mL

CC(=O)N[C@@H](CSC1CC(=O)N(CCCCCC(=O)NCCCC(O)(P(=O)(O)O)P(=O)(O)O)C1=O)C(=O)N1CCC[C@H]1C(=O)N[C@@H](CC(C)C)C(=O)NCC(=O)N[C@@H](CC(C)C)C(=O)N[C@@H](Cc1ccc(O)cc1)C(=O)N[C@@H](C)C(=O)N[C@@H](CC(C)C)C(=O)NCCCNCCSP(=O)(O)O (some centres unmarked) [Conjugate 2] (Ac-C(X1)PLGLYAL-X2) = ~7.5 h
CC(=O)N[C@@H](CSC1CC(=O)N(CCCCCC(=O)NCCCC(O)(P(=O)(O)O)P(=O)(O)O)C1=O)C(=O)N[C@@H](CCCCN)C(=O)N1CCC[C@H]1C(=O)N[C@@H](CC(C)C)C(=O)NCC(=O)N[C@@H](CC(C)C)C(=O)N[C@@H](Cc1c[nH]c2ccccc12)C(=O)N[C@@H](C)C(=O)N[C@@H](CC(C)C)C(=O)NCCCNCCSP(=O)(O)O (some centres unmarked) [Conjugate 1] (Ac-C(X1)KPLGLWAL-X2) = ~2 h
